Values from the supplement of paper PMC10981050

Known cell viability of a selection of compounds
System: MOLM14
test: cell viability relative to vehicle control; higher = less cytotoxic;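 also: after 48 h exposure read by CellTiter-Glo luminescence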
test_conditions: 10 µM; SRSF2 genotype: SRSF2 P95H/wt
Structures can show the parent of a compound that is named as a salt.
Enter your answer as a number in %; do not include the unit.

cell viability in this record for N=c1ccn2c(n1)O[C@H]1[C@H](O)[C@@H](CO)O[C@H]12 [Cyclocytidine HCl] : 11.3

Reported cell viability ( NC(=O)Cc1c[nH]c2ccccc12 [Indole-3-acetamide] ) = 92.9

// recorded cell viability for CC1CCC2(C(=O)O)CCC3(C)C(=CCC4C5(C)CCC(OC6OCC(O)C(O)C6O)C(C)(C)C5CCC43C)C2C1(C)O (stereo not drawn) [Ziyuglycoside II] : 103

Measured cell viability, OC1COC(O)C(O)C1O (stereo not drawn) [L(+)-Arabinose] : 95.5

Data point: CCN1CC(CCN2CCOCC2)C(c2ccccc2)(c2ccccc2)C1=O (stereo not drawn) [Doxapram HCl] ; cell viability = 104

====

System: OCI-AML2
test: cell viability relative to vehicle control; higher = less cytotoxic
test_conditions: 10 µM; SRSF2 genotype: P95H/wt
measured_attribute: cell viability
A complete answer gives the number and then names the unit.

Completed entries (count: 3):
Entry Nc1nc(Cl)nc2c1ncn2[C@H]1C[C@H](O)[C@@H](CO)O1 — recorded cell viability = 4.93%

// cell viability lookup, compound = COC(=O)c1cc(OC)c(O)c(OC)c1 [Methyl syringate] , result: 96.8%

// cell viability value for CC(C)(C)OC(=O)N[C@H]1CCCCC/C=C\[C@@H]2C[C@@]2(C(=O)NS(=O)(=O)C2CC2)NC(=O)[C@@H]2C[C@@H](OC(=O)N3Cc4cccc(F)c4C3)CN2C1=O : 123%

// next item, cell viability requested
Cc1ccc(NC(=S)NNc2c([N+](=O)[O-])cc(C(F)(F)F)cc2[N+](=O)[O-])cc1Cl yielded cell viability of 101%

====

Tested on: MOLM14
test: cell viability relative to vehicle control; higher = less cytotoxic
test_conditions: 10 µM; SRSF2 genotype: SRSF2 wt/wt
Returns: string. Value is y if measured cell viability is below 90%, and n if it is greater than or equal to it.

Examples with answers:
Prompt line: hey, is cell viability for O=C(N/N=C/c1ccc(O)c(O)c1)c1cc2ccccc2cc1O lower than 90% or not?
Response line: n

Prompt line: Below 90% on cell viability? Entry CC(=O)O[C@@H]1CC[C@@]2(C)[C@@H](CC[C@]3(C)[C@@H]2C(=O)C=C2[C@@H]4[C@@H](C)[C@H](C)CC[C@]4(C)CC[C@]23C)[C@@]1(C)C(=O)O
Response line: y

Prompt line: Confirm or reject: cell viability of COc1cc(/C=C/C(=O)CC(=O)/C=C/c2ccc(O)c(OC)c2)ccc1O lies strictly below 90%
Response line: y

Prompt line: Please indicate whether the reported cell viability of CC(/C=C1\SC(=S)N(CC(=O)O)C1=O)=C\c1ccccc1 is strictly below 90%.
Response line: n

Prompt line: Strictly below 90%: is that where cell viability of CC(=O)O[C@H]1C(=O)[C@@]2(C)[C@H]([C@H](OC(=O)c3ccccc3)[C@]3(O)C[C@H](OC(=O)[C@H](O)[C@@H](NC(=O)c4ccccc4)c4ccccc4)C(C)=C1C3(C)C)[C@]1(OC(C)=O)CO[C@@H]1C[C@@H]2O sits?
Response line: y

Others:
Prompt line: cell viability strictly < 90% for this molecule? CC[C@H](Nc1ncnc2[nH]cnc12)c1oc2ccccc2c(=O)c1-c1cccc(F)c1 [Tenalisib (RP6530)]
Response line: y

Prompt line: Decide: cell viability of C[C@H]1COc2c(N3CCN(C)CC3)c(F)cc3c(=O)c(C(=O)O)cn1c23 [Levofloxacin hydrate] strictly below 90%?
Response line: n

====

Tested on: MARIMO
test: cell viability relative to vehicle control; higher = less cytotoxic
test_conditions: 10 µM; SRSF2 genotype: SRSF2 P95H/wt
Doc: threshold 90% (exclusive). Items with cell viability beneath it return True; others return False.

Some solved cases for reference:
Prompt line: Item COc1ccc(CCc2cc(OC)c(OC)c(OC)c2)cc1O : cell viability beneath 90%, strictly?
Response line: True

Prompt line: Please state whether cell viability is below 90% for COc1cc2c(NC3CCN(C(C)C)CC3)nc(C3CCCCC3)nc2cc1OCCCN1CCCC1
Response line: True

Prompt line: Field: below-cutoff. Rule: recorded cell viability strictly less than 90%. Subject: Cc1nc2cccc(N)c2c(=O)n1C1CCC(=O)NC1=O (centres undefined) [Avadomide(CC-122)]
Response line: False

Prompt line: Consider OC[C@H]1O[C@@H](n2cnc3c(O)nc(O)nc32)[C@H](O)[C@@H]1O . Does its cell viability lie strictly below 90%?
Response line: False

Prompt line: cell viability strictly < 90% for this molecule? O=c1cc(-c2cccc3c2Sc2ccccc2S3)oc(N2CCOCC2)c1
Response line: False

# input for lookup
Prompt line: hey, is cell viability for COc1cc(N2CCN(C)CC2)ccc1Nc1ncc2c(n1)N(C)c1ccccc1C(=O)N2 lower than 90% or not?
Response line: False

====

Tested on: OCI-AML2
test: cell viability relative to vehicle control; higher = less cytotoxic
test_conditions: 10 µM; SRSF2 genotype: wt/wt
Counter-ions that a name gives are not always drawn.
Note to self: use satisfied only for cell viability readings below 80%; a reading exactly at 80% still gets not satisfied.

Consider the following illustrative entries.
Prompt line: Determine if Cc1ccc(CNc2ncnc3ccc(-c4ccc(CO)o4)cc23)o1 shows cell viability strictly lower than 80%.
Response line: not satisfied

Prompt line: Does this molecule meet the criterion cell viability < 80%? O=C1C2=C(CCN(Cc3ccccc3)C2)N2CCN=C2N1Cc1ccc(C(F)(F)F)cc1
Response line: satisfied

Prompt line: Dear colleague, could you confirm whether cell viability of COc1ccc(-c2ccc3ncc4c(c3c2)n(-c2ccc(N3CCNCC3)c(C(F)(F)F)c2)c(=O)n4C)cn1 falls below 80%? Thanks.
Response line: satisfied

Prompt line: Field: below-cutoff. Rule: recorded cell viability strictly less than 80%. Subject: CN(C)[C@@H](CCOc1cccc2ccccc12)c1ccccc1 [Dapoxetine hydrochloride (Priligy)]
Response line: satisfied

Prompt line: Problem: For the molecule CCNC(=O)Nc1ccc(-c2nc3c(c(N4CCOC[C@@H]4C)n2)CCN(C2COC2)C3)cc1 , is cell viability under 80%?
Response line: satisfied

Prompt line: Is 80% strictly greater than the molecule's reported cell viability? molecule: CC1=C(CSC(=S)N2CCCCC2)C(=O)c2ccccc2C1=O [PKM2 inhibitor(compound 3k)]
Response line: satisfied

Prompt line: Please let me know if CS(=O)(=O)c1ccc(-c2cnc(N)c(C(=O)Nc3ccccc3)n2)cc1 shows cell viability below 80%.
Response line: not satisfied

Next item in the queue.
Prompt line: # strict comparison: is reported cell viability < 80%? input = CC1OC(OC2C(OC3CCC4(C)C(CCC5(C)C4CC=C4C6CC(C)(C)CCC6(C(=O)OC6OC(COC7OC(CO)C(O)C(O)C7O)C(O)C(O)C6O)CCC45C)C3(C)CO)OCC(O)C2O)C(O)C(O)C1O (stereo not drawn) [Dipsacoside B]
Response line: not satisfied

====

Test system: MOLM14
test: cell viability relative to vehicle control; higher = less cytotoxic
test_conditions: 10 µM; SRSF2 genotype: SRSF2 P95H/wt
Where a name gives a salt, the structure may show the parent alone.
In this section we review reported cell viability values for a set of compounds.
State the answer as a number, implicitly in %.

Example compounds with recorded cell viability:
// recorded cell viability for Cc1ccc(S(=O)(=O)NC(=O)NN2CC3CCCC3C2)cc1 (stereo not drawn) [Gliclazide (Diamicron)] : 103

Record NC1(c2ccc(-c3nc4ccn5c(=O)[nH]nc5c4cc3-c3ccccc3)cc2)CCC1 [MK-2206 dihydrochloride] . Reported cell viability: 14.7

Lab note: CNCc1ccc(-c2cc(-c3nc(-c4ccc(S(=O)(=O)C(C)C)cc4)cnc3N)on2)cc1 gave cell viability of 0.28

Record summary for C[C@@H]1COCCN1c1cc(C2(S(C)(=O)=O)CC2)nc(-c2cccc3[nH]ccc23)n1 : reported cell viability = 22.2

Entry C#Cc1cccc(Nc2ncnc3cc(OCCOC)c(OCCO)cc23)c1 — recorded cell viability = 32.1

Entry CC(=O)Oc1ccccc1C(=O)O , cell viability reported as 95.7

// recorded cell viability for C[C@H](NC(=O)c1c(N)nn2cccnc12)c1cc2cccc(C#Cc3cnn(C)c3)c2c(=O)n1-c1ccccc1 : 54.3

Turning now to a further record.
The compound identified as COc1cc(Nc2ncc(F)c(Nc3ccc4c(n3)N(COP(=O)(O)O)C(=O)C(C)(C)O4)n2)cc(OC)c1OC registered its cell viability at 8.88

====

System: MARIMO
test: cell viability relative to vehicle control; higher = less cytotoxic
test_conditions: 10 µM; SRSF2 genotype: SRSF2 P95H/wt
measured_attribute: cell viability (%)
Lab book: enter the figure in %, no units written.

These solved cases illustrate the format of a correct answer.
So for CCCCCCOC(=O)c1cc(=O)c(O)c2c(O)c(O)c(OC)cc2c1 , the logged cell viability turned out to be 45.2

response.value for CC(C)c1cccc(O)c(=O)c1 (field: cell viability) = 79.5

Reported cell viability for Cc1ccc(C(=O)Nc2ccc(CN3CCN(C)CC3)c(C(F)(F)F)c2)cc1C#Cc1cnc2[nH]ncc2c1 [GZD824 Dimesylate] was 0.31

The compound COc1cc([C@@H]2c3cc4c(cc3[C@@H](O[C@@H]3O[C@@H]5CO[C@@H](c6cccs6)O[C@H]5[C@H](O)[C@H]3O)[C@H]3COC(=O)[C@H]23)OCO4)cc(OC)c1O [Teniposide (Vumon)] showed cell viability equal to 3.97

cell viability measured on CC12CCC(CC1)C(C)(C)O2 = 101

Entry CC(C)Oc1ccc(-c2nc(-c3cccc4c3CC[C@@H]4NCCO)no2)cc1C#N [Ozanimod (RPC1063)] , cell viability reported as 27.3

For CCN=C1N[C@@H]2[C@@H](O)[C@H](O)[C@@H](CO)O[C@@H]2S1 the compound record lists cell viability as 103

Now let's try a different one.
// cell viability lookup, compound = COc1cc(NC(=O)c2ccc(-c3ccc(Cl)cc3)o2)cc(OC)c1 , result: 99
